assay: oral pharmacokinetic test; format: in vivo, ICR mice; details: ICR, mouse, plasma, 10 mg/kg, 10 mg/Kg PO, vehicle B (0.5% methyl cellulose)
Overview of reported Cmax across a group of compounds:
Write the answer as a number in ng/mL, unit excluded.

Cc1cn(-c2cc(NC(=O)c3cc(C#Cc4cnc5c(Nc6cnn(C)c6)cccn45)c(C)cc3F)cc(C(C)(C)C#N)c2)cn1 ... 10000

Query compound follows.
Which measured Cmax value corresponds to Cc1cn(-c2cc(NC(=O)c3cc(C#Cc4cnc5c(Nc6cnn(C)c6)cccn45)c(C)cc3F)cc(C(F)(F)F)c2)cn1 ? 3360

* * *

Assay: oral pharmacokinetic test
Assay type: in vivo, ICR mice
Settings: ICR, mouse, plasma, 10 mg/kg, 10 mg/Kg PO, vehicle A (NMP:PEG400=5:95)
Protocol: To evaluate the pharmacokinetic properties in vivo, oral pharmacokinetic test was performed with the compounds of Comparative Examples 1 and 4 and Examples 1 and 4 using mice and rats, and the PK parameters are shown in Table 10. ICR mice (6-7 weeks old) and SD rats (6-7 weeks old) were used for the test. […] To 20 μl of plasma, 180 μl of acetonitrile (including internal standard) was added. […] The supernatant obtained after centrifugation was analyzed by LC-MS/MS. […]
assayEndpoint: AUC(0-t) (ng·h/mL)
Write the answer as a number in ng·h/mL, unit excluded.

Some solved entries appear below for comparison.
Cc1cn(-c2cc(NC(=O)c3ccc(C)c(C#Cc4cnc5c(Nc6cnn(C)c6)cccn45)c3)cc(C(F)(F)F)c2)cn1 [Comparative Example 1, reference compound] ... 7730
Cc1cn(-c2cc(NC(=O)c3cc(C#Cc4cnc5c(Nc6cnn(C)c6)cccn45)c(C)cc3F)cc(C(C)(C)C#N)c2)cn1 ... 138000

Which measured AUC(0-t) value corresponds to Cc1cn(-c2cc(NC(=O)c3ccc(C)c(C#Cc4cnc5c(Nc6cnn(C)c6)cccn45)c3)cc(C(C)(C)C#N)c2)cn1 [Comparative Example 4, reference compound] ? 12600

* * *

tested on: T315I-TCCS cells; assay: human CML cell proliferation inhibition; assay type: cell-based; details: 72 hours, Cell Counting Kit-8
assayEndpoint: GI50

Cc1cc(F)c(C(=O)Nc2cc(CN3CCCN(C)CC3)cc(C(F)(F)F)c2)cc1C#Cc1cnc2c(Nc3cnn(C)c3)cccn12 ... 100 nM
Cc1cn(-c2cc(NC(=O)c3cc(C#Cc4cnc5c(Nc6cnn(C)c6)cccn45)c(C)cc3Cl)cc(C(C)(C)C#N)c2)cn1 ... < 10 nM
Cc1cc(F)c(C(=O)Nc2ccc(CN3CC(OC(C)C)C3)c(C(F)(F)F)c2)cc1C#Cc1cnc2c(Nc3cnn(C)c3)cccn12 ... > 100 nM

What value of GI50 on T315I-TCCS cells does Cc1cc(F)c(C(=O)Nc2cc(-c3cccnc3)cc(C(F)(F)F)c2)cc1C#Cc1cnc2c(Nc3cnn(C)c3)cccn12 have? 100 nM

Record: Cc1cc(F)c(C(=O)Nc2cc(Cn3ccnc3)cc(C(F)(F)F)c2)cc1C#Cc1cnc2c(Nc3cnn(C)c3)cccn12 100 nM

Record: Cc1cc(F)c(C(=O)Nc2cc(CN3CCC(N(C)C)C3)cc(C(C)(C)C#N)c2)cc1C#Cc1cnc2c(Nc3cnn(C)c3)cccn12 (stereo not drawn) 100 nM

* * *

test system: TCCS cells; test: human CML cell proliferation inhibition; assay type: cell-based; conditions: 72 hours, Cell Counting Kit-8
Overview of reported GI50 across a group of molecules:

Some solved entries appear below for comparison.
Cc1cc(F)c(C(=O)Nc2ccc(CN3CCN(CCO)CC3)c(C(F)(F)F)c2)cc1C#Cc1cnc2c(Nc3cnn(C)c3)cccn12 ... < 10 nM
Cc1cc(F)c(C(=O)Nc2cc(Oc3ccncc3)cc(C(C)(C)C#N)c2)cc1C#Cc1cnc2c(Nc3cn[nH]c3)cccn12 ... < 10 nM

Query molecule follows.
Which measured GI50 value corresponds to Cc1cc(F)c(C(=O)Nc2cc(N(C)CCN(C)C)cc(C(C)(C)C#N)c2)cc1C#Cc1cnc2c(Nc3cn[nH]c3)cccn12 ? < 10 nM
